# test: Solubility enhancement of MSU crystals in phosphate buffered saline (Examples 2A, 2B)
# Type: physicochemical
# measurement-conditions: Table 2; 5% by volume solubility enhancer in PBS pH 7.4; control = 100%
observable: % vs control (%)
Quick note: give the figure in %, leave out the unit.

# % vs control lookup, item CCCCCCCC/C=C\CCCCCCCC(=O)OC [Methyl oleate]
119

What about this compound? OCC(O)CO [Glycerol]
114

What about this compound? CC(=O)OCC(COC(C)=O)OC(C)=O [Triacetin]
165

What about this compound? CC(O)CO (stereo not drawn) [Propylene glycol]
114

What about this compound? OCc1ccccc1 [Benzyl alcohol]
263

---
# % vs control lookup, item OCCO [Ethylene glycol]
112
